Target: PPAR alpha (Homo sapiens)
Construct: expressed in transfected cells; host or cells: HEK293
Sequence (Q07869 239-466 limits assumed, species assumed): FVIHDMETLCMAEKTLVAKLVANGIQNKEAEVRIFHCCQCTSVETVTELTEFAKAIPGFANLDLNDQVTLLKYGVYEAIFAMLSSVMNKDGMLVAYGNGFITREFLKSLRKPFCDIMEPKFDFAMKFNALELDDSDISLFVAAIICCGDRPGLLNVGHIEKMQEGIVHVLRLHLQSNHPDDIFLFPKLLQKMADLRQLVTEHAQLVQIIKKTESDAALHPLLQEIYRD
Assay: Transfection assay for PPAR receptors (GAL4-LBD luciferase reporter), PPAR alpha
Type: cell-based
Settings: Table 1; HEK293 cells co-transfected with PPAR LBD-GAL4 and GAL4 (UAS) luciferase reporter, 18–24 hrs
Each item that follows carries a reported log10 EC50.
attribute_measured: log10 EC50 (log10 of the value in nM)

compound_structure: Cc1ccc(-c2nsc(COc3ccc(OC(C)(C)C(=O)O)c(C)c3)n2)cc1Cl
tested_on: PPAR alpha (Homo sapiens)
log10 EC50: 2.47
//
compound_structure: Cc1ccc(-c2nsc(COc3ccc(OC(C)(C)C(=O)O)c(C)c3)n2)cc1C
tested_on: PPAR alpha (Homo sapiens)
log10 EC50: 2.81
//
compound_structure: Cc1cc(SCc2nc(-c3ccc(C(F)(F)F)c(F)c3)ns2)ccc1OC(C)(C)C(=O)O
tested_on: PPAR alpha (Homo sapiens)
log10 EC50: 1.53
//
compound_structure: Cc1cc(SCc2nsc(-c3ccc(C(F)(F)F)cc3)n2)ccc1OC(C)(C)C(=O)O
tested_on: PPAR alpha (Homo sapiens)
log10 EC50: 2.63
//
compound_structure: Cc1cc(SCc2nc(-c3ccc(C(C)(C)C)cc3)ns2)ccc1OC(C)(C)C(=O)O
tested_on: PPAR alpha (Homo sapiens)
log10 EC50: 1.81
//
compound_structure: Cc1cc(SCc2nc(-c3ccc(Cl)cc3)ns2)ccc1OC(C)(C)C(=O)O
tested_on: PPAR alpha (Homo sapiens)
log10 EC50: 2.27
//
compound_structure: Cc1cc(SCCc2nc(-c3ccc(Cl)c(Cl)c3)ns2)ccc1OC(C)(C)C(=O)O
tested_on: PPAR alpha (Homo sapiens)
log10 EC50: 2.09
//
compound_structure: Cc1ccc(-c2nsc(CSc3ccc(OC(C)(C)C(=O)O)c(C)c3)n2)cc1C
tested_on: PPAR alpha (Homo sapiens)
log10 EC50: 2.06
//
compound_structure: Cc1cc(OCc2nc(-c3ccc(C(F)(F)F)c(F)c3)ns2)ccc1OC(C)(C)C(=O)O
tested_on: PPAR alpha (Homo sapiens)
log10 EC50: 1.93
//
compound_structure: Cc1cc(OCc2nc(-c3ccc(Cl)c(Cl)c3)ns2)ccc1OC(C)(C)C(=O)O
tested_on: PPAR alpha (Homo sapiens)
log10 EC50: 2.70
//
compound_structure: Cc1cc(OCc2nc(-c3ccc(C(F)(F)F)cc3)ns2)ccc1OC(C)(C)C(=O)O
tested_on: PPAR alpha (Homo sapiens)
log10 EC50: 1.97
//
compound_structure: Cc1cc(SCc2nsc(-c3ccc(OC(F)(F)F)cc3)n2)ccc1OC(C)(C)C(=O)O
tested_on: PPAR alpha (Homo sapiens)
log10 EC50: 2.82
//
compound_structure: Cc1ccc(-c2nsc(CSc3ccc(OC(C)(C)C(=O)O)c(C)c3)n2)cc1Cl
tested_on: PPAR alpha (Homo sapiens)
log10 EC50: 1.83
//
compound_structure: Cc1cc(SCc2nc(-c3ccc(Cl)c(Cl)c3)ns2)ccc1OC(C)(C)C(=O)O
tested_on: PPAR alpha (Homo sapiens)
log10 EC50: 2.02
//
compound_structure: Cc1cc(SCc2nc(-c3ccc(C(F)(F)F)cc3)ns2)ccc1OCC(=O)O
tested_on: PPAR alpha (Homo sapiens)
log10 EC50: 2.67
//
compound_structure: Cc1cc(SCCc2nc(-c3ccc(C(F)(F)F)cc3)ns2)ccc1OC(C)(C)C(=O)O
tested_on: PPAR alpha (Homo sapiens)
log10 EC50: 1.57

* * *

Target: PPAR delta (Homo sapiens)
Construct: expressed in transfected cells; host or cells: HEK293
Sequence (Q03181 211-439 limits assumed): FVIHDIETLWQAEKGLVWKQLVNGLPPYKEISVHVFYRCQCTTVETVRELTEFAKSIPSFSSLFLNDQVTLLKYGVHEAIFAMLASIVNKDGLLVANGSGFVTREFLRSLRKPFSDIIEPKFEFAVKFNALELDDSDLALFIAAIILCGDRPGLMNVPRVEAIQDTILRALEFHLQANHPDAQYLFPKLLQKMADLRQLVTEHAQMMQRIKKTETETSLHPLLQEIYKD
Experiment: Transfection assay for PPAR receptors (GAL4-LBD luciferase reporter), PPAR delta
Assay type: cell-based
Conditions: Table 1; HEK293 cells co-transfected with PPAR LBD-GAL4 and GAL4 (UAS) luciferase reporter, 18–24 hrs
Criterion: EC50 strictly under 10 nM. Met: rule met. Not met: rule not met.

molecule: Cc1cc(SCc2nc(-c3ccc(OC(F)(F)F)c(Cl)c3)ns2)ccc1OC(C)(C)C(=O)O [Compound 8]
class: rule met

molecule: Cc1cc(SCc2nsc(-c3ccc(OC(F)(F)F)cc3)n2)ccc1OC(C)(C)C(=O)O [Compound 17]
class: rule not met

molecule: Cc1cc(OCc2nc(-c3ccc(Cl)c(Cl)c3)ns2)ccc1OC(C)(C)C(=O)O [Compound 26]
class: rule not met

molecule: Cc1cc(OCc2nc(-c3ccc(C(F)(F)F)c(F)c3)ns2)ccc1OC(C)(C)C(=O)O [Compound 21]
class: rule met

molecule: Cc1cc(SCc2nsc(-c3ccc(C(F)(F)F)cc3)n2)ccc1OC(C)(C)C(=O)O [Compound 16]
class: rule not met

molecule: Cc1cc(OCc2nc(-c3ccc(OC(F)(F)F)c(Cl)c3)ns2)ccc1OC(C)(C)C(=O)O [Compound 25]
class: rule not met

molecule: Cc1cc(SCc2nsc(-c3ccc(Cl)c(Cl)c3)n2)ccc1OC(C)(C)C(=O)O [Compound 19]
class: rule not met

* * *

Target: PPAR delta (Homo sapiens, UniProt Q03181)
Construct: expressed in transfected cells; host or cells: HEK293
Sequence (Q03181 211-439 limits assumed): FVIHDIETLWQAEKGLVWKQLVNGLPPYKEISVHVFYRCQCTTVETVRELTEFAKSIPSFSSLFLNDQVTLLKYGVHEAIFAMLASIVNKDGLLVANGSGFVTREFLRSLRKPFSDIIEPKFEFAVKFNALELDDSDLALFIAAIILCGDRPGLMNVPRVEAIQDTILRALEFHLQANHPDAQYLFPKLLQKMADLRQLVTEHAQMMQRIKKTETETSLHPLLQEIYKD
Experiment: Transfection assay for PPAR receptors (GAL4-LBD luciferase reporter), PPAR delta
Assay type: cell-based
Details: Table 1; HEK293 cells co-transfected with PPAR LBD-GAL4 and GAL4 (UAS) luciferase reporter, 18–24 hrs
pEC50: −log10 of the molar value.
# pEC50 >= 7 gives Criterion met, anything below gives Criterion not met

compound_structure: Cc1cc(SCc2nc(-c3ccc(Cl)c(Cl)c3)ns2)ccc1OC1(C(=O)O)CCCC1
class: Criterion not met
//
compound_structure: Cc1ccc(-c2nsc(CSc3ccc(OC(C)(C)C(=O)O)c(C)c3)n2)cc1Cl
class: Criterion met
//
compound_structure: Cc1cc(SCc2nc(-c3ccc(Cl)cc3)ns2)ccc1OC(C)(C)C(=O)O
class: Criterion met
//
compound_structure: Cc1cc(SCc2nc(-c3ccc(Cl)c(Cl)c3)ns2)ccc1OC(C)(C)C(=O)O
class: Criterion met
//
compound_structure: Cc1ccc(-c2nsc(CSc3ccc(OC(C)(C)C(=O)O)c(C)c3)n2)cc1
class: Criterion met
//
compound_structure: Cc1ccc(-c2nsc(COc3ccc(OC(C)(C)C(=O)O)c(C)c3)n2)cc1C
class: Criterion not met
//
compound_structure: Cc1cc(SCc2nc(-c3ccc(C(F)(F)F)c(F)c3)ns2)ccc1OC(C)(C)C(=O)O
class: Criterion met

* * *

Target: PPAR gamma (Homo sapiens)
Construct: expressed in transfected cells; host or cells: HEK293
Assay: Transfection assay for PPAR receptors (GAL4-LBD luciferase reporter), PPAR gamma
Format: cell-based
Conditions: Table 1; HEK293 cells co-transfected with PPAR LBD-GAL4 and GAL4 (UAS) luciferase reporter, 18–24 hrs
pEC50: −log10 of the molar value.
attribute_measured: pEC50

compound_structure: Cc1ccc(-c2nsc(COc3ccc(OC(C)(C)C(=O)O)c(C)c3)n2)cc1Cl
attribute_measured: pEC50
result: < 5.52
--
compound_structure: Cc1cc(SCc2nc(-c3ccc(Cl)cc3Cl)ns2)ccc1OC(C)(C)C(=O)O
attribute_measured: pEC50
result: < 5.52
--
compound_structure: Cc1cc(SCc2nc(-c3ccc(OC(F)(F)F)cc3)ns2)ccc1OC(C)(C)C(=O)O
attribute_measured: pEC50
result: 4.93
--
compound_structure: Cc1cc(OCc2nc(-c3ccc(OC(F)(F)F)c(Cl)c3)ns2)ccc1OC(C)(C)C(=O)O
attribute_measured: pEC50
result: < 5.52

* * *

Biological target: PPAR gamma (Homo sapiens, UniProt P37231)
Construct: expressed in transfected cells; host or cells: HEK293
Sequence (P37231 238-503 limits assumed): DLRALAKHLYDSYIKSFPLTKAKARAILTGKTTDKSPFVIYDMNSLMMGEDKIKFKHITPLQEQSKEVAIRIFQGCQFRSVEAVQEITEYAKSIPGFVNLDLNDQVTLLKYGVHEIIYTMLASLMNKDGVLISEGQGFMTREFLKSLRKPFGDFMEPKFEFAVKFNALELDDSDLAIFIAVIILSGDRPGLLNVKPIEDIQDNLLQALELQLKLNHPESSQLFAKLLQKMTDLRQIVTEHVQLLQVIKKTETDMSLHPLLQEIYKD
Test: Transfection assay for PPAR receptors (GAL4-LBD luciferase reporter), PPAR gamma
Assay type: cell-based
Conditions: Table 1; HEK293 cells co-transfected with PPAR LBD-GAL4 and GAL4 (UAS) luciferase reporter, 18–24 hrs
Experimental: Transfection Assay Method for PPAR Receptors HEK293 cells were grown in DMEM/F12 medium supplemented with 10% FBS and glutamine (Invitrogen) and incubated in a 5% CO2 incubator at 37° C. […] Luciferase reporter activity was measured using the Steady-Glo Luciferase Assay Kit from Promega. […]
pEC50: −log10 of the molar value.
Reported pEC50 values are given for each entry in this list.

compound_structure: Cc1cc(SCc2nc(-c3ccc(C(C)(C)C)cc3)ns2)ccc1OC(C)(C)C(=O)O
pEC50: < 5.52
//
compound_structure: Cc1cc(SCc2nc(-c3ccc(C(F)(F)F)c(F)c3)ns2)ccc1OC(C)(C)C(=O)O
pEC50: 6.19
//
compound_structure: Cc1cc(OCc2nc(-c3ccc(C(F)(F)F)cc3)ns2)ccc1OC(C)(C)C(=O)O
pEC50: < 5.52
//
compound_structure: Cc1cc(SCc2nc(-c3ccc(OC(F)(F)F)c(Cl)c3)ns2)ccc1OC(C)(C)C(=O)O
pEC50: < 5.52
//
compound_structure: Cc1ccc(-c2nsc(COc3ccc(OC(C)(C)C(=O)O)c(C)c3)n2)cc1C
pEC50: < 5.52
//
compound_structure: Cc1ccc(-c2nsc(CSc3ccc(OC(C)(C)C(=O)O)c(C)c3)n2)cc1Cl
pEC50: 6.17
//
compound_structure: Cc1cc(SCCc2nc(-c3ccc(C(F)(F)F)cc3)ns2)ccc1OC(C)(C)C(=O)O
pEC50: 6.33
//
compound_structure: Cc1ccc(-c2nsc(CSc3ccc(OC(C)(C)C(=O)O)c(C)c3)n2)cc1
pEC50: < 5.52
